Values from the nanobody polyreactivity screen of Harvey et al. (2022)

Experiment: yeast display, Sf9 membrane polyspecificity reagent, FACS + sequencing; frameworks hold sequencing errors
reported-property: polyreactivity (PSR sort gate)

record_sequence=QVQLVESGGGLVQAGGSLRLSCAASGSIVLIYAMGWYRQAPGKERELVAAITGRGGRTYYADSVKGRFTISRDNAKNTVYLQLNSLKPEDTAVYYCAADSVYTLGLKYDYWGQGTQVTVSS reported_property="polyreactivity (PSR sort gate)" result="high polyreactivity"
record_sequence=QVQLVESGGGLVQAGGSLRLSCAASGRTFRGYVMGWYRQAPGKERELVASISYSGGSTYYADSVKGRFTISRDNAKNTVYLQMNSLKPEDTAVYYCAARKGYDQYRWRYSQNNYWGQGTQVTVSS reported_property="polyreactivity (PSR sort gate)" result="high polyreactivity"

###

Assay: yeast display, Sf9 membrane polyspecificity reagent, FACS + sequencing; frameworks hold sequencing errors
reported-property: polyreactivity (PSR sort gate)

Look over these answered cases.
record_sequence=QVQLVESGGGLVQAGGSLRLSCAASGLTFRSYAMGWYRPAPGKEREFVAAITGSGDTTYYADSVKGRFTISRDNAKNTVYLQMNSLKPEDTAVYYCNADRDYLWITLYEYWGQGTQVTVSS reported_property="polyreactivity (PSR sort gate)" result="high polyreactivity"
record_sequence=QFQLVESGGGLVQAGGSLRLSCASSGSTFGYNAMGWYRQAPGKESELVAAISYSGGSTSYADSVKGRFTISRDNAKNTVYLQMNSLKPEDSAVYYCASDSYSQYSSQALEGFGYWGQGTQVTVSS reported_property="polyreactivity (PSR sort gate)" result="low polyreactivity"
record_sequence=QVQLVESGGGLVQAGGSLRLSCAASGYIFSVNAMGWYRQAPGKERELVAAIRGSGGSTFYADSVKGRFTISRDNAKNTVYLQMNSLKPEDTAVYYCAAYWRGRYDYWGQGTQVTVSS reported_property="polyreactivity (PSR sort gate)" result="low polyreactivity"
record_sequence=QVQLVESGGGLVQAGGSLRLSCAASGRIFIGNAMGWYRQAPGKERELVAAISKRGGSTYYADSVKGRFTISRDNAKNTVYLQMNSLKQEDTAVYYCNKESLYREFDYWGQGTQVTVSS reported_property="polyreactivity (PSR sort gate)" result="low polyreactivity"
record_sequence=QVQLVESGGGLVQAGGSLRLSCAASGSIFGDNAMGWYRQAPGKERELVASITWSGGSTFYADSVKGRFTISRDNAQITVYLQMNSLKPEDTAVYYCAADTAEYLYDMDYWGQGTQVTVSS reported_property="polyreactivity (PSR sort gate)" result="low polyreactivity"

polyreactivity (PSR sort gate) recorded for this sequence, QVQLVESGVGLVQAGGSLRLSCAASGRTFEPNAMGWYRHAPGKERELVAGITWSGGSTYYADSVKGRFTISRDNAKNTVYLQMNSLKPEDTAVYYCNAPITWKRSHYGYWGQGTQVTVSS , is low polyreactivity

###

Test: yeast display, Sf9 membrane polyspecificity reagent, FACS + sequencing; frameworks hold sequencing errors
reported-property: polyreactivity (PSR sort gate)

Study these solved cases before continuing.
record_sequence=QVQLVESGGGLVQAGGSLRLSCAASGSIFNYYAMGWYRQAPGKERELVAAIRSTGSTNYADSVKGRFTISRDNAKNTVYLQMNSLKPEDTAVYYCATDVSDWLYFAEHYYWGQGTQVTVSS result="low polyreactivity"
record_sequence=QVQLVESGGGLVQAGGSLRLSCAASGIIFGSNTMGWYRQAPGKERELVAAITSSDGSTHYADSVKGRFTISRDNAKNTVYLQMNTLKPEDTAVYYCAARKVTYGHSYGYDYWGQGTQVTVSS result="low polyreactivity"
record_sequence=QVQLVESGGGLVQAGGSLRLSCAASGSIFTHYAMGWYRQAPGKERELVAAIARRGGSTYYADSVKGRFTISRDNAKNTVYLQMNSLKPEDTAVYYCAKSPDTAKEYDYWGQGTQVTVSS result="high polyreactivity"
record_sequence=QVQLVESGGGLVQAGGSLRLSCAASGRTLEQYAMGWYRQAPRKERELVAAINKSGARTYYADSVKGRFTISRDNAKNSVYLQMNSQKPEDTAVYYCNTVGPSYLFDYWGQGTQVTVSS result="high polyreactivity"

The measured polyreactivity (PSR sort gate) associated with QVQLVESGGGLVQAGGSLRLSCDASGRTFQYYAMGWYRQAPGKVRELVAGISSCGGSTYYADSVKGRFTISRDNAKNTVDLQMNSLKPEDTAVYYCNKARYFTGQRYDYWGQGTQVTVSS reads high polyreactivity
